# target.system: E2F-1/Cyclin A interaction (Homo sapiens, UniProt P20248)
# assay: E2F-1/Cyclin A/cdk2 ELISA
# Format: binding
# measurement.conditions: linear peptide; read-out: IC50 Linear
Where no end group is shown, it is not given here.
measure: pIC50
In textbook form, pIC50 equals minus log to base ten of the concentration in mol/L.

Ac-AKRKLFG [Ac-Ala-Lys-Arg-Lys-*Leu-Phe-Gly*]; 6.70
Ac-KRKLFG [Ac-Lys-Arg-Lys-*Leu-Phe-Gly* (Linear), Ac-Lys-Arg-Lys-*Leu-Phe-Gly*]; 6.00

Please examine the following record next.
// pIC50 lookup, substance = PAKRKLFG [Pro-Ala-Lys-Arg-Lys-Leu-Phe-GIy] , result: 7.00
